Target: His-tagged canine IL-31 (interleukin 31) recombinant protein (canine)
Assay: cell-based or functional assay
valueKind: pSTAT IC50 (µg/mL)
Answer in µg/mL, number only, no unit symbol.

6465-H2K3-canIgGB (antibody, V domains shown) VH: EVQLVESGGDLVKPGGSLRLSCVASGYSFTNYYLYWVRQAPGKGLQWLGELNPRNGGTNLNAKFKTRFTISVDKAKNTAYLQMNSLRAEDTAVYYCTRGGTTVVVRDVMDFWGQGTLVTVSS VL: DIVMTQTPLSLSVSPGEPASISCRASESVDSYGNSFMHWYRQKPGQSPQLLIYRASNLESGVPDRFSGSGSGTDFTLRISRVEADDAGVYYCQQSNEDPYTFGQGTKLEIKR | 7.6
6465-H2K1-canIgGB (antibody, V domains shown) VH: EVQLVESGGDLVKPGGSLRLSCVASGYSFTNYYLYWVRQAPGKGLQWLGELNPRNGGTNLNAKFKTRFTISVDKAKNTAYLQMNSLRAEDTAVYYCTRGGTTVVVRDVMDFWGQGTLVTVSS VL: EIVLTQTPLSLAVTPGELATISCRASESVDSYGNSFMHWYLQKPGQTPRLLIYRASNLESGVSDRFSGSGSRTDFTLKISRVEAEDVGVYYCQQSNEDPYTFGQGTKLEIKR | 7.3
6465-H3K3-canIgGB (antibody, V domains shown) VH: EVQLVESGGDLVKPGGSLRLSCVASGYSFTNYYLYWVRQAPGKGLEWVAELNPRNGGTNLNAKFKTRFTISRDNAKNMAYLQMNSLRAEDTAVYYCTRGGTTVVVRDVMDFWGQGTLVTVSS VL: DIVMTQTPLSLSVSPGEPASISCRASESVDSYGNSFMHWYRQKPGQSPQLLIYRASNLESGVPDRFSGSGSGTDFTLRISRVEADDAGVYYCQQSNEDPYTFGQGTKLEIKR | 7.2
B2-H2K1-canIgGB (antibody, V domains shown) VH: EVQLVESGGDLVKPGGSLRLSCVASGFTFSDAWMDWVRQAPGKGLEWVAEIRSRAESHATYYAESVKGRFTISRDDAKNMVYLQMNSLRAEDTAVYYCTPASTMITTGWFAYWGQGTLVTVSS VL: EIVMTQTPLSLAVTPGELATISCRASQNISVYLHWYLQKPGQTPRVLIKYVSQSISGVSDRFSGSGSGSDFTLKISRVEAEDVGVYYCQNGHSFPYTFGQGTKLEIKR | 8.3

Lab note: next binder to report on.
So what's the measured pSTAT IC50 (µg/mL) for this one? 6465-H3K1-canIgGB (antibody, V domains shown) VH: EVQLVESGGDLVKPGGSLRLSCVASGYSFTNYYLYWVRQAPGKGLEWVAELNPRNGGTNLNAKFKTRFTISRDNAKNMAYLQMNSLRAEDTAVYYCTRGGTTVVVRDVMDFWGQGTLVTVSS VL: EIVLTQTPLSLAVTPGELATISCRASESVDSYGNSFMHWYLQKPGQTPRLLIYRASNLESGVSDRFSGSGSRTDFTLKISRVEAEDVGVYYCQQSNEDPYTFGQGTKLEIKR
7.8
